Target Under Test: T1, human LAP-TGFB1 Fc fusion (human)
T1 construct: also called human LAP-TGFβ1-Fc; human LAP-TGFβ-Fc isoform 1
T1 sequence (chain, as listed by the source limits assumed): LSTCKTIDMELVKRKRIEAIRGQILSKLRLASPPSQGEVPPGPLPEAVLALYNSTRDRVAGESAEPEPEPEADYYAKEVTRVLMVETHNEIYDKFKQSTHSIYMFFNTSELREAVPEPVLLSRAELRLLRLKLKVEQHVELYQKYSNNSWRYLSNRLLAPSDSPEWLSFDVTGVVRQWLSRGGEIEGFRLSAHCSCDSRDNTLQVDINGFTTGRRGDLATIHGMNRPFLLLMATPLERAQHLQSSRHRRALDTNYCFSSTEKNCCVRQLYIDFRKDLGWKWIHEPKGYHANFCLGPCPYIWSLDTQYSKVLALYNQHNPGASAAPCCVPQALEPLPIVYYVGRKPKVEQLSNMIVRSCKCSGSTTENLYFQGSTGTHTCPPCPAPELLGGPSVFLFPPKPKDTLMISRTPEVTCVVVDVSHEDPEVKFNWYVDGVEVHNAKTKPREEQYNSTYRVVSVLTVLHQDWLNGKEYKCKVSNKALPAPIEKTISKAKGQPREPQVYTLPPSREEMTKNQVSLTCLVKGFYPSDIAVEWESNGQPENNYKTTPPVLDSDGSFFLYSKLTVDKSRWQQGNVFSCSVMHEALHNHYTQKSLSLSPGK
Assay Notes: SPR, antigen-Fc captured, Fab analyte
Result Type: kon (M⁻¹ s⁻¹)
Answer format: numeric, M⁻¹ s⁻¹ implied, no suffix.

Examples with their reported kon follow.
{"columns": ["Binder", "Result Type", "U", "Endpoint Result"],
 "data": [
  ["77BJN (Fab, V domains shown, also called VH W33D I58V / VL T30Y R53V T93E (77BJN)) VH: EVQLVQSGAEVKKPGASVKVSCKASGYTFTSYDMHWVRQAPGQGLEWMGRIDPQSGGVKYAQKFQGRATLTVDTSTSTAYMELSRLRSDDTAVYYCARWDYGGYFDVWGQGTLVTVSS VL: DIQMTQSPSSLSASVGDRVTITCRASQDIYNYLNWYQQKPGKAVKLLIYYTSVLHSGVPSRFSGSGSGTDYTLTISSLQPEDFATYFCQQGDELPWTFGQGTKLEIKR", "kon", "M⁻¹ s⁻¹", "5.22e+06"],
  ["65BJN (Fab, V domains shown, also called VH W33D M34L W99Y Y101Q / VL T30Y N31Y (65BJN)) VH: EVQLVQSGAEVKKPGASVKVSCKASGYTFTSYDLHWVRQAPGQGLEWMGRIDPQSGGIKYAQKFQGRATLTVDTSTSTAYMELSRLRSDDTAVYYCARYDQGGYFDVWGQGTLVTVSS VL: DIQMTQSPSSLSASVGDRVTITCRASQDIYYYLNWYQQKPGKAVKLLIYYTSRLHSGVPSRFSGSGSGTDYTLTISSLQPEDFATYFCQQGDTLPWTFGQGTKLEIKR", "kon", "M⁻¹ s⁻¹", "2.94e+06"],
  ["58BJN (Fab, V domains shown, also called VH W33D W99Y Y101H / VL T30Y (58BJN)) VH: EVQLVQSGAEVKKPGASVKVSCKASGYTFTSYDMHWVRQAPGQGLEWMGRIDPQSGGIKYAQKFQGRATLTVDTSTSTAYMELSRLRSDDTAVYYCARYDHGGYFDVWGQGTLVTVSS VL: DIQMTQSPSSLSASVGDRVTITCRASQDIYNYLNWYQQKPGKAVKLLIYYTSRLHSGVPSRFSGSGSGTDYTLTISSLQPEDFATYFCQQGDTLPWTFGQGTKLEIKR", "kon", "M⁻¹ s⁻¹", "2.35e+06"],
  ["64BJN (Fab, V domains shown, also called VH S31T I58S / VL T30Y R53H (64BJN)) VH: EVQLVQSGAEVKKPGASVKVSCKASGYTFTTYWMHWVRQAPGQGLEWMGRIDPQSGGSKYAQKFQGRATLTVDTSTSTAYMELSRLRSDDTAVYYCARWDYGGYFDVWGQGTLVTVSS VL: DIQMTQSPSSLSASVGDRVTITCRASQDIYNYLNWYQQKPGKAVKLLIYYTSHLHSGVPSRFSGSGSGTDYTLTISSLQPEDFATYFCQQGDTLPWTFGQGTKLEIKR", "kon", "M⁻¹ s⁻¹", "3.57e+06"]
]}

Here is another binder to look at.
Would you kindly share the measured kon for 57BJN (Fab, V domains shown, also called VH W33D / VL (57BJN)) VH: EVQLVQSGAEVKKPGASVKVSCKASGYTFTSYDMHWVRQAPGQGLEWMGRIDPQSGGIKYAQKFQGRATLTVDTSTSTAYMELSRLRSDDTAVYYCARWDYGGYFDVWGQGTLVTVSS VL: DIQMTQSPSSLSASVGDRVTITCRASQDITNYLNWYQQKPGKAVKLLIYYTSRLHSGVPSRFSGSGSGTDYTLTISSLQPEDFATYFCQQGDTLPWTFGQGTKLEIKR ?
1.33e+06

Data origin, for the record: patent US20230272056A1
